Data origin, for the record: patent US8124601B2

biological target: HCV NS5B (Hepatitis C virus genotype 1b); construct: The protein was expressed with an 18 amino acid C-terminal truncation to enhance the solubility; made in house; host or cells: E. coli BL21(DE3); experiment: Modified HCV NS5B RdRp enzyme assay (preincubation protocol); format: biochemical
Sequence (Q9WMX2 2420-2992): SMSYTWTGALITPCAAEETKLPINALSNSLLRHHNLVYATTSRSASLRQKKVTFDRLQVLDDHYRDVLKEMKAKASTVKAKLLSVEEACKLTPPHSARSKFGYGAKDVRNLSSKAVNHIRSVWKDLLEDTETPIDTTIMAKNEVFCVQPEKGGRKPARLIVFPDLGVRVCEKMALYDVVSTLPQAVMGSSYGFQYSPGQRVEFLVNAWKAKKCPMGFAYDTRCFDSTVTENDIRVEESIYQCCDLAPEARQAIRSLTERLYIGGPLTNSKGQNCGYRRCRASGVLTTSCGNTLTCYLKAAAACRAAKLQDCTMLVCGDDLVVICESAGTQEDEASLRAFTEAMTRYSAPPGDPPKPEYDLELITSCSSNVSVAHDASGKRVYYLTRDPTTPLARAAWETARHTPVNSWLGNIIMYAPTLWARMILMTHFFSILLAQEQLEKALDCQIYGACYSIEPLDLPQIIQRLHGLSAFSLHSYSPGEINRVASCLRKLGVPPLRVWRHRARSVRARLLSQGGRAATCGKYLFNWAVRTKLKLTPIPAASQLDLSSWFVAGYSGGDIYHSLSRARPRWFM
pIC50: −log10 of the molar value.
Overview of recorded pIC50 for various molecules

Known results for molecules:
{"molecule": "CCCS(=O)(=O)NC(=O)c1ccc2c(C3CCCCC3)c3n(c2c1)CC1(C(=O)N2CCC4(CCCN4C(C)=O)CC2)CC1c1cc(OC)ccc1-3 (stereo not drawn)", "pIC50": "6.30 to 8.34"}
{"molecule": "CCCS(=O)(=O)NC(=O)c1ccc2c(C3CCCCC3)c3n(c2c1)CC1(C(=O)N2CCC4(CCCN4C)CC2)CC1c1cc(OC)ccc1-3 (stereo not drawn)", "pIC50": "6.30 to 8.34"}

Looking up CCCS(=O)(=O)NC(=O)c1ccc2c(C3CCCCC3)c3n(c2c1)CC1(C(=O)N2CCCC4(CCN(C)C4)C2)CC1c1cc(OC)ccc1-3 (stereo not drawn) [drawing 26] , I see its pIC50 listed as 6.30 to 8.34
